- Test system: HCC-2998 colon
- testDescription: NCI-60 one-dose screen, 48 h (100 = growth as untreated, 0 = no growth, -100 = all killed)
- testConditions: 10 µM unless noted
About 83,000 compounds went through this panel and 20% of them were active in at least one assay; those are over-represented in the sample as a whole.
recordedEndpoint: growth (%)
Provide the reading as a plain figure in %.

The measured growth associated with COc1cccc(-c2nnc(N)o2)c1 reads 83.3

Briefly, growth measured for Cc1ccc2c(c1)C(=O)/C(=C/c1ncc([N+](=O)[O-])n1C)O2 : -44

Query COc1cc(C2CC(c3ccc(C)cc3)=NN2C(C)=O)ccc1Oc1ccnc2cc(Cl)ccc12 (configuration not stated) yields growth of 83.3

Nc1ccc(C2=NN(c3ccccc3)C(c3ccc(Cl)cc3)C2)cc1 (configuration not stated) has a reported growth of 76.8

// sample COc1ccc2nc3cc(Cl)ccc3c(Nc3cc(C(C)C)c(O)cc3C)c2c1 , its growth was 37.5

Query Fc1ccc(-c2nc(Nc3ccc(-c4nc5ccccc5[nH]4)cc3)nc(N3CCOCC3)n2)cc1 yields growth of -89.9

growth reported for this compound Cc1cc(NC(=O)c2ccc(N)cc2)ccc1N=Nc1ccc2c(O)c(N=Nc3ccc(Cl)c(S(=O)(=O)O)c3)c(S(=O)(=O)O)cc2c1 : 73.1

For record ClC1=C(Cl)C(Cl)=C(Cl)C1=Cc1ccc(Cl)cc1 the listed growth is 30.9

Lab note: measured growth of CCC(C)CC(C)C(=O)c1c(O)ccn(OC)c1=O (configuration not stated) was 95.7

Reported growth for Cc1cc(=O)n2n1-c1ccc(Cl)cc1NC(=O)C2 was 110

Lookup result for CSc1ccc2c(c1)N(CCC1CCCCN1C)c1ccccc1S2 (configuration not stated) ; measured growth: 34.4

Entry O=C1c2ccccc2-c2c1nc1ccccc1[n+]2[O-] , growth reported as 104

---

- Tested on: COLO 205 colon
- testDescription: NCI-60 one-dose screen, 48 h
- testConditions: 10 µM unless noted
This is part of a sample that, as a whole, favours compounds with a hit. Of some 83,000 tested, about 20% had one in any assay. Activity calls are given as the source filed them. How the source made its calls: active means growth percent below 10; inactive means the rest.
Parameter call: string, one of yes (active), no (inactive)

Exam item: Assay outcome for Clc1ccc(-n2cnc3c(Cl)ncnc32)cc1Cl : what was it?
Marked response: no

Exam item: For this compound, state the assay outcome: Cn1c(=O)c2c(nc(Br)n2CCC(=O)Nc2ccc(F)cc2)n(C)c1=O
Marked response: no

Exam item: Record lookup: outcome of this test for CCCCCCCC/C=C/CCCCCCCC1=NC(C)(C)CN1CC(C)O (configuration not stated) ?
Marked response: yes

Exam item: Tell me the assay call for Cc1cc(CC(=O)O)n(C)c1C(=O)c1ccc(Cl)cc1 please.
Marked response: no

Exam item: Hello, I am checking results. What call was entered for O=C(NCCc1ccccc1)C1CCC(=O)N1Cc1ccc(Br)cc1 (configuration not stated) ?
Marked response: no

Exam item: Outcome? Clc1ccccc1[C@@H]1C[C@@H]2Cc3cc(Br)c4ccccc4c3N1O2
Marked response: no

Exam item: What call does the record list for O=C1/C(=N/O)CCc2ccccc21 ?
Marked response: no

Exam item: Per the assay record, what outcome was assigned to O=C1/C(=C/c2ccc3cccc(Cl)c3n2)SC(=S)N1CCc1ccc(O)cc1 ?
Marked response: no

Exam item: Can you look up the reported call for O=C(NCCCO)c1cc(Cl)ccc1O for me?
Marked response: no

Exam item: What was the test verdict on COc1ccc(/C=N/NC(=O)c2ccc(S(C)(=O)=O)cc2)cc1OC ?
Marked response: no

Exam item: Look up the recorded call for CC(C)c1nc(N(C)S(C)(=O)=O)nc(-c2ccc(F)cc2)c1/C=C/[C@@H](O)C[C@@H](O)CC(=O)O in this test.
Marked response: no

Exam item: # lookup: test call for O=C1CC(C(F)(F)F)=NN1C(=O)c1nn(-c2ccc(Cl)cc2)cc1O
Marked response: no

Exam item: Hey, what did the test say about COc1ccc2nc3cc(Cl)ccc3c(Nc3cc(C(C)C)c(O)cc3C)c2c1 ?
Marked response: no

Exam item: What did the test return for CC[C@@H]1OC(=O)[C@H](C)[C@@H](O[C@H]2C[C@@](C)(OC)[C@@H](O)[C@H](C)O2)[C@H](C)[C@@H](O[C@@H]2O[C@H](C)C[C@H](N(C)C)[C@H]2O)[C@](C)(O)C[C@@H](C)[C@@H]2N[C@@H](COCCOC)O[C@H]([C@H]2C)[C@]1(C)O ?
Marked response: no

Exam item: Just curious, what result did CCCCC(C#N)C(N)=O (configuration not stated) get here?
Marked response: no

Exam item: Name the outcome recorded for NC(=O)SCC(=O)Nc1ccccc1-c1ccccc1 in the assay.
Marked response: no

Exam item: I'd appreciate the recorded outcome for c1ccc(N2CCN(c3nncc4ccccc34)CC2)nc1 from this test.
Marked response: no

---

- Tested on: NCI-H226 lung
- testDescription: NCI-60 one-dose screen, 48 h (100 = growth as untreated, 0 = no growth, -100 = all killed)
- testConditions: 10 µM unless noted
This is part of a sample that, as a whole, favours compounds with a hit. Of some 83,000 tested, about 20% had one in any assay.
recordedEndpoint: growth (%)
Write it as a number; the unit % goes unstated.

Please fill in: growth reported for Cc1c(C(N)=O)sc2c1c(=O)n(Cc1ccccc1)c1nnc(SCC(=O)Nc3ccc(Cl)cc3)n21 = 9.97

So, Cc1nn(-c2ccccc2)c(Cl)c1C(CC(=O)c1ccc(Cl)cc1)CC(=O)c1ccc(Cl)cc1 ? Its growth was 88.6

Consider O=C1c2ccccc2C(=O)c2c1cccc2-n1nnc2ccccc21 . Its measured growth is 103

# growth (compound: N#CCCCCCn1c2ccccc2c2c3c(c4c5ccccc5[nH]c4c21)C(=O)N(O)C3=O ) is 43.3

The compound identified as Nc1c2ccccc2nc2ccccc12 (tested in a mixture with another compound) registered its growth at 11

# growth of O=C(Nc1ccccc1Cl)c1cnc2ccc(C3CCNCC3)cn12 = 65

// field: growth; key: CC1(C)OC(=O)C(=Cc2ccccc2Br)C(=O)O1 ; value = 96.9

// sample CN1CCCC1c1cccnc1 (configuration not stated) , its growth was 96.4

growth in this record for O=C(C(Br)Br)C(Br)C(Br)c1ccccc1 (configuration not stated) : 95

GET /value?item= CN(CC(=O)Nc1nc2ccccc2[nH]1)S(=O)(=O)c1ccc(Cl)cc1 &field=growth returns 81.7

Looking up O=C1OCC/C1=C\OCCCO/C=C1\CCOC1=O , I found its growth recorded as 103

Recorded result, O=C(Nc1cccc(-n2cc(-c3ccncc3)c(-c3ccc(O)c(Cl)c3)n2)c1)Nc1ccc(Cl)c(C(F)(F)F)c1 , growth: 20.2

growth in this record for COc1ccc(-c2nnc(COc3ccc(NC(=O)Nc4cc(C(F)(F)F)cc(C(F)(F)F)c4)cc3F)o2)cc1 : 7.41

Lookup result for COc1cc(/C=C/C(=O)c2c(-c3ccc(F)cc3)nc3sc(C)nn23)cc(OC)c1OC ; measured growth: 38.9

For this compound ( O=C(OCCBr)c1ccc(Cl)c([N+](=O)[O-])c1 ), measured growth is 126

Sure, the documented growth for Cc1ccc(C(O)C2=CC(=O)c3ccccc3C2=O)cc1 (configuration not stated) is 94.9

For COc1ccc(-c2cnnn2-c2cc(OC)c3c(c2)OCO3)cc1 the compound record lists growth as 88.4

---

- Tested on: NCI-H322M lung
- testDescription: NCI-60 one-dose screen, 48 h (100 = growth as untreated, 0 = no growth, -100 = all killed)
- testConditions: 10 µM unless noted
Compounds without any hit were thinned out: in the full panel of roughly 83,000, 20% have a hit.
recordedEndpoint: growth (%)
Field format: number, assumed %, no unit text.

Value sought: growth, system NCI-H322M lung, item Nc1nonc1-c1nc2ccccc2n1CC(=O)Nc1ccc2c(c1)COC2=O . Result: 107

Reported growth (NCI-H322M lung) for entry CN(C)c1ccc2[nH]c3c(C(N)=O)cc(=O)c(=O)c=3oc2c1 is 109

NCI-H322M lung growth of Cc1cc(NC(=O)Nc2cc(Cl)ccc2C)no1 is 146

The recorded growth with NCI-H322M lung for COC(=O)CCC1=C(C)/C(=C/c2[nH]c(-c3ccc[nH]3)cc2OC)N=C1C was 26.6

Reported NCI-H322M lung growth for item C/C(=C\CCc1ccoc1)CC/C=C(\C)CCCN1CCC(CO)CC1 was 74.9

Reading of growth for COc1ccc2c3c(c(OCCCN(C)C)nc2c1)-c1ccc(Cl)cc1C3=O with NCI-H322M lung: 3.92

Form field, growth with NCI-H322M lung, item CCOC(=O)c1ccccc1OC(=O)NNc1ccccc1 : 58

growth value, target or system NCI-H322M lung, for CC(=O)NCCSC(=O)C(=O)SCCNC(C)=O : 144

Noted growth for CCCCCCCC/C=C/CCCCCCCC1=NC(C)(C)CN1CC(C)O (configuration not stated) , tested on NCI-H322M lung: 53.9

Query CCCCn1c(Cc2ccc(Cl)cc2)nc2cc(OC)c(OC)cc2c1=O on NCI-H322M lung; growth returned: 97.3

Result for O=C(Nc1cccc(-n2cc(-c3ccncc3)c(-c3ccc(O)c(Cl)c3)n2)c1)Nc1ccc(Cl)c(C(F)(F)F)c1 , tested on NCI-H322M lung, growth: -17.7

Known value: NCI-H322M lung growth of the compound CN1CCN(CC(=O)Nc2nc3c(s2)Nc2cc(Cl)c(Cl)cc2NC3=O)CC1 equals 94.1

Sample C=CC1=C(C(=O)O)N2C(=O)[C@@H](NC(=O)/C(=N\O)c3csc(N)n3)[C@H]2SC1 (stereo in doubt) , system: NCI-H322M lung. Its growth is 109

Reported NCI-H322M lung growth for item C[n+]1ccc(Nc2ccc(NC(=O)c3ccc(Nc4cc[n+](C)c5ccc(N)cc45)cc3)cc2)cc1 was 146

Field growth (NCI-H322M lung), entry COc1cc(/C=C/C(=O)Nc2ccc3c(c2)/C(=C\c2cccn2C)C(=O)N3)cc(OC)c1OC : 61.2

Tested system NCI-H322M lung; growth recorded for CN(C)CCCN1c2nc3ccccc3cc2Sc2cc3ccccc3nc21 was 18

The reported NCI-H322M lung growth of COc1ccc(C2CC(c3ccc(OC)c(OC)c3)=NN2C(=O)c2cc(OC)c(OC)c(OC)c2)cc1 (configuration not stated) is 37.7

The compound Cc1nn(-c2ccc(Cl)cc2)c2nc3c(nc12)C(=O)c1ccccc1-3 , tested on NCI-H322M lung, showed growth of 63.1

NCI-H322M lung growth of CCC1=C(c2ccc(OC)cc2)C(C)(C)Oc2cc(O)c(CN3CCCC3)cc21 is 92

NCI-H322M lung assay, compound COc1cc2cn3c4ccc(O)cc4nc(N)c3c2cc1OC , recorded growth = 28.7

GET /values?item= CN(C(=O)c1ccccc1)N(C)C(=O)c1ccccc1 &system= NCI-H322M lung returns growth: 96.6

NCI-H322M lung data for Nc1ccc(C2=Nc3cccc4cccc(c34)S2)cc1 ; its growth: 88.1

Form field growth for item O=C(CSc1nnc(Nc2ccccc2)s1)NCCc1ccc(F)cc1 on NCI-H322M lung: 115

Log: NCI-H322M lung, compound CC(c1cc(Cl)ccc1O)c1cc(Cl)ccc1O , growth = 80

Entry COc1cc2c(-c3nc4cc(Cl)c(F)cc4s3)cc(=O)oc2c(C)c1OC , NCI-H322M lung data, growth value: 7.69

Tested system NCI-H322M lung; growth recorded for Cc1nc(N)[nH]c(=O)c1C was 96.6

Noted growth for Cc1cc(C)c2c(c1)N1OC(C2)C[C@H]1/C=C/c1ccccc1 (some centres not stated) , tested on NCI-H322M lung: 81.3

Param item: O=C(/C(=C/c1cccc([N+](=O)[O-])c1)c1ccccc1)c1ccccc1 ; param system: NCI-H322M lung; output growth: 80.6

growth on NCI-H322M lung for O=C(Cn1ccnc1)NC(c1ccccc1)c1ccccc1 is 98.7

The compound COc1cc(C2C=C(c3ccc(C)cc3)Nc3nc(SC)[nH]c(=O)c32)ccc1Oc1ccnc2cc(Cl)ccc12 (configuration not stated) on NCI-H322M lung: growth was 84

Let me check: CCN(CC)CCNc1ccc(Cl)cc1Cl , system NCI-H322M lung, measured growth is 94.9

growth value, target or system NCI-H322M lung, for COc1ccc2nccc(/C=C/c3ccnc4ccc(OC)cc34)c2c1 : 120
